Test system: MOLT-4 leukemia
test_details: NCI tumour cell line growth inhibition, 48 h
test_readout: TGI

Solved cases below.
compound: COc1ccc(/C=N/NC(=O)c2sc(=S)n(-c3ccccc3)c2N)cc1
result: > 100 µM
//
compound: Cc1ccc(S(=O)(=O)c2ccc(NC(=O)SCCC(=O)O)cc2)cc1
result: > 100 µM
//
compound: O=C(CC(CC(=O)Oc1c(Br)cc(Br)cc1C(=O)O)C(=O)Oc1c(Br)cc(Br)cc1C(=O)O)Oc1c(Br)cc(Br)cc1C(=O)O
result: > 100 µM
//
compound: CC1=Nc2ccccc2NC(c2ccoc2)C1 (centres undefined)
result: > 100 µM
//
compound: NC1=CC(=O)c2cccnc2C1=O
result: 3.45 µM

Consider `Nc1ccccc1NC(=O)c1ccc(CNc2nccc(-c3cccnc3)n2)cc1` . Its measured TGI is > 23.2 µM

Consider `Cc1ccc(/C=N/n2c(Cc3ccccc3)n[nH]c2=O)cc1` . Its measured TGI is > 100 µM

Consider `CCN(CC)C(=O)Cn1c(-c2ccccc2)cc2ccccc21` . Its measured TGI is 42.7 µM

Consider `CCN(CC)CCC(=O)c1ccc(Sc2ccc(F)cc2)cc1` . Its measured TGI is 33.5 µM

Consider OC(c1cc(-c2cccc(Cl)c2)nc2ccccc12)C1CCCCN1 (centres undefined) . Its measured TGI is 4.14 µM

====

Tested on: KM12 colon
test_details: NCI tumour cell line growth inhibition, 48 h
test_readout: TGI

Solved cases below.
molecule: CN(C)c1ccc(/C=C/C(=O)[O-])cc1.CN(C)c1ccc(/C=C/C(=O)[O-])cc1.[Cu+2]
test_readout: TGI
result: > 100 µM
--
molecule: COC(=O)[C@H](Cc1ccccc1)NC(=O)/C(=C/C(C)C)NC(=O)[C@H](CCSC)NC=O
test_readout: TGI
result: > 100 µM
--
molecule: Nc1c(C(=O)c2ccc(-c3cccnc3)cc2)cnn1-c1ccc(F)cc1
test_readout: TGI
result: > 25 µM
--
molecule: COc1cc2nc(Nc3cccc(Br)c3)nc(Nc3cccc(Br)c3)c2cc1OC
test_readout: TGI
result: 36.7 µM
--
molecule: CCN(CC)C(=O)Cn1c(-c2ccccc2)cc2ccccc21
test_readout: TGI
result: > 100 µM

Consider `O=C(O)CSCc1cc2c(O)c(c1)Cc1cc(CSCC(=O)O)cc(c1O)Cc1cc(CSCC(=O)O)cc(c1O)Cc1cc(CSCC(=O)O)cc(c1O)C2` . Its measured TGI is > 100 µM

Consider `O=C(O)/C=C/C(=O)N1Cc2cc3ccccc3nc2C1` . Its measured TGI is > 100 µM

Consider `Clc1ccc(Nc2nnc(CCCCCCCCc3nnc(Nc4ccc(Cl)cc4)o3)o2)cc1` . Its measured TGI is 99.2 µM

Consider `O=c1ccn(CC2(CO)CCCC2)c(=O)[nH]1` . Its measured TGI is > 100 µM

Consider COc1ccc(CC2C3=C(CCN2C(=O)C2CCC2)CC2(CC3)OCCO2)cc1O (stereo unspecified) . Its measured TGI is > 100 µM

Consider Cc1ccc(S(=O)(=O)CN2C(=O)C(c3ccccc3)(c3ccccc3)C23OC(c2ccc(Cl)cc2)=CC3=O)cc1 (stereo unspecified) . Its measured TGI is > 10 µM

Consider `O=C1c2cccnc2S(=O)(=O)N1c1ccc(Oc2ccccc2)cc1` . Its measured TGI is > 100 µM

Consider `Cc1ccc(Cl)cc1Nc1nc(C(F)(F)F)ccc1C(=O)N/N=C/c1cccnc1` . Its measured TGI is 11.8 µM

====

Tested on: U251 CNS
test_details: NCI tumour cell line growth inhibition, 48 h
test_readout: TGI

Solved cases below.
molecule: O=C(c1cc2ccccc2[nH]1)N1C2CCC1CN(CCOC(c1ccc(F)cc1)c1ccc(F)cc1)CC2 (stereo unspecified)
test_readout: TGI
result: > 100 µM

molecule: CCCCCCCC/C=C/CCCCCCCC1=NC(C)(C)CN1CC(C)O (stereo unspecified)
test_readout: TGI
result: 3.02 µM

molecule: COC(=O)/C(=N\NC(N)=O)C(C(=O)C(=O)Nc1ccccc1OC)c1nc2ccc([N+](=O)[O-])cc2[nH]c1=O (stereo unspecified)
test_readout: TGI
result: > 100 µM

molecule: C=C1CC2CCCC12C=O (stereo unspecified)
test_readout: TGI
result: > 10 µM

molecule: CCCCCC1CC=CC(=O)O1 (stereo unspecified)
test_readout: TGI
result: 17.2 µM

Consider `O=C1CC[C@H](N2C(=O)c3cccc4c(Cc5ccc(CN6CCOCC6)cc5)ccc2c34)C(=O)N1` . Its measured TGI is > 100 µM

Consider `CC(C)(C)c1cc(-c2cc(C(C)(C)C)[nH]n2)n[nH]1` . Its measured TGI is > 100 µM

Consider `COc1ccc(OC(C)=O)c2c1CCC=CC2=O` . Its measured TGI is 32.2 µM

Consider COC(=O)CCC(C)[C@H]1CCC2C3C(C[C@H](OC(C)=O)[C@@]21C)[C@@]1(C)CCC2(C[C@H]1C[C@H]3OC(C)=O)OOC1(CCCC1)OO2 (stereo partly specified) . Its measured TGI is > 100 µM

Consider `NC(=S)N/N=C/c1nccc2ccccc12` . Its measured TGI is > 100 µM

Consider `Cc1ccc(Cl)cc1Nc1nc(C(F)(F)F)ccc1C(=O)N/N=C/c1cccnc1` . Its measured TGI is 11.7 µM

Consider CC(=O)OCC(C)C1=C(OC(C)=O)C(=O)C2(C)C/C=C(/C)CC/C=C(\C)CCC(OC(C)=O)C(C)CCC12 (stereo unspecified) . Its measured TGI is 31.3 µM

Consider `COc1cc2c(cc1C[C@H]1[C@@H]3C[C@H]4c5c(c6ccccc6n5C)C[C@@H]([C@@H]3CO[C@]1(C)OC(C)=O)N4C)c1c(n2C)C2C[C@H]3C(C(C)=O)=COC[C@H]3[C@H](C1)N2C` . Its measured TGI is > 25 µM

Consider `Cc1c(O)c2ccccc2oc1=O` . Its measured TGI is > 100 µM

====

Test system: HOP-62 NSCLC
test_details: NCI tumour cell line growth inhibition, 48 h
In this section, each of the compounds is paired with its reported TGI.
Numbers only here, please. The scale is µM.

Solved cases below.
compound: COc1cc2nccc(Oc3ccc(NC(=O)NC4CC4)c(Cl)c3)c2cc1C(N)=O
test_readout: TGI
number: 61.5
//
compound: COc1ccc2sc3cccc(NCCN(C)C)c3c(=O)c2c1
test_readout: TGI
number: 10.7
//
compound: COc1c(O)c(OC)c2oc(-c3ccc(O)c(O)c3)c(OC)c(=O)c2c1O
test_readout: TGI
number: 43.7
//
compound: Cc1ccc(Cl)cc1Nc1nc(C(F)(F)F)ccc1C(=O)N/N=C/c1cccnc1
test_readout: TGI
number: 18.5

Consider CCCCCCCC/C=C/CCCCCCCC1=NC(C)(C)CN1CC(C)O (stereo not given) . Its measured TGI is 3.39

====

In this section, each of the compounds is paired with its reported TGI.
Test system: IGROV1 ovarian
test_details: NCI tumour cell line growth inhibition, 48 h

Solved cases below.
compound: COc1cc2c(cc1C[C@H]1[C@@H]3C[C@H]4c5c(c6ccccc6n5C)C[C@@H]([C@@H]3CO[C@]1(C)OC(C)=O)N4C)c1c(n2C)C2C[C@H]3C(C(C)=O)=COC[C@H]3[C@H](C1)N2C
test_readout: TGI
result: > 25 µM
--
compound: C=C(C)C(=O)O[C@H]1CC2=C[C@@H](C[C@@]3(C)O[C@@H]3[C@H]3OC(=O)C(=C)[C@@H]31)OC2=O
test_readout: TGI
result: 9.46 µM

Consider Nc1nc2c(ncn2C2CCC(CO)O2)c(=O)n1C(=O)c1ccccc1 (centres undefined) . Its measured TGI is > 100 µM

Consider `CC(=O)Nc1ccc(/C=c2\sc3nnc(CCC(=O)Nc4ccccc4Cl)n3c2=O)cc1` . Its measured TGI is > 100 µM

Consider `CC(=O)N(C)c1ccc(N=CN(C)C)cc1` . Its measured TGI is > 100 µM

====

Tested on: SF-295 CNS
test_details: NCI tumour cell line growth inhibition, 48 h; in the data active means GI50 below about 0.43 µM; inactive means the rest
Result category, one only: active, inactive

Some solved cases for reference:
compound: CN1CCC(COc2cnc(-c3cccc(Cn4nc(-c5cccc(C#N)c5)ccc4=O)c3)nc2)CC1
assay_target: SF-295 CNS
classification: inactive
--
compound: O=C(COc1ccc(/C=C2\COc3ccccc3C2=O)cc1)Nc1nccs1
assay_target: SF-295 CNS
classification: inactive
--
compound: N.N.NCCCCCN.O=C([O-])CCl.O=C([O-])CCl.O=C([O-])CCl.O=C([O-])CCl.[Pt+4].[Pt+4]
assay_target: SF-295 CNS
classification: inactive
--
compound: Cc1ccc(Cl)cc1Nc1nc(C(F)(F)F)ccc1C(=O)N/N=C/c1cccnc1
assay_target: SF-295 CNS
classification: inactive
--
compound: COc1ccc(/C=C(/C(=O)N2CCN(c3ccccc3)CC2)c2cc(OC)c(OC)c(OC)c2)cc1N
assay_target: SF-295 CNS
classification: active
--
compound: Cc1cc(Cl)cc2c(N=Nc3ccc(S(N)(=O)=O)cc3)c(O)[nH]c12
assay_target: SF-295 CNS
classification: inactive

Outcome logged for `O=C(c1ccco1)c1nc2cc(C(F)(F)F)ccc2nc1C(F)(F)F` in this assay: inactive

Outcome logged for C=CCC(N[C@@H](CO)c1ccccc1)c1cn(Cc2ccccc2Cl)c(=O)n(Cc2ccccc2Cl)c1=O (some centres undefined) in this assay: inactive

Outcome logged for COc1cccc(CCC2CCCN(c3cc(C)nc(N)n3)C2)c1 (centres undefined) in this assay: active
